Data origin: patent US20210032294A1

Tested on: bacterial inoculum
Experimental Protocol: Thermal stability: in vitro lytic assay after 30 min heating
Assay type: cell-based
Condition Notes: 30 minutes at 48° C.
Measured Property: % of CF-301 wild-type, 48° C. (%)
Give bare numbers, in %.

I'd like to know its % of CF-301 wild-type, 48° C.. The molecule in question is pp65: Modified PlySs2 lysin, SEQ ID NO: 5: L92W, V104S, V128T, Y137S, S198Q, V204A, V212A; +246K (protein) MTTVNEALNNVRAQVGSGVSVGNGECYALASWYERMISPDATVGLGAGVGWVSGAIGDTISAKNIGSSYNWQANGWTVSTSGPFKAGQIVTWGATPGNPYGHVSIVEAVDGDRLTILEQNYGGKRYPTRNYYSAASSRQQVVHYITPPGTVAQSAPNLAGSRSYRETGTMTVTVDALNVRRAPNTSGEIVAVYKRGEQFDYDTAIIDVNGYAWVSYIGGSGKRNYVATGATKDGKRFGNAWGTFK
0.0
